molecular target: human D1 dopamine receptor (clone HGL26) (Homo sapiens, UniProt P21728); assay: Competition for [^125 I]SCH23982 binding to membranes of COS-7 cells expressing HGL26; parameters: a 2.3 kb EcoRI-XbaI restriction fragment containing the open reading frame was subcloned into the expression vector pCMV5; expressed in transfected cells; host or cells: African green monkey kidney COS-7 cells, transient, pCMV5
Sequence (P21728 whole entry, the tested form may be a part): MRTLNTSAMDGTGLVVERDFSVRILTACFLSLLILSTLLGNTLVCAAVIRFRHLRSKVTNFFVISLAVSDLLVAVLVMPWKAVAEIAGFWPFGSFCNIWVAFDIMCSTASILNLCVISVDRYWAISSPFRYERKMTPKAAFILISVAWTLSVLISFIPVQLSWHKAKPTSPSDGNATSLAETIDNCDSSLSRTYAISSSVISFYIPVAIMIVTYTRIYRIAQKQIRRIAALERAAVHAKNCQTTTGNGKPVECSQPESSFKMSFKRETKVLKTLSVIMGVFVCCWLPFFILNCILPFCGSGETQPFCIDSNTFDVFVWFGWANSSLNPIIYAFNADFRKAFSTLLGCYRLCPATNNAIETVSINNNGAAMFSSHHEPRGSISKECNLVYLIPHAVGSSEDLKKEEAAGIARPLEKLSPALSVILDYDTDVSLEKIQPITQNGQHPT
Reported Metric: pKd
Schema: pKd number; meaning minus log10 of the concentration expressed in molar units.

compound="C=CCc1ccccc1OCC(O)CNC(C)C (centres unmarked)" tested_system="human D1 dopamine receptor (clone HGL26) (Homo sapiens, UniProt P21728)" value_measured=4.80

Next compound, please.
Query: Can you share its pKd? I mean this compound: O=C(CCCN1CCC2(CC1)C(=O)NCN2c1ccccc1)c1ccc(F)cc1
Reply: 6.66

###

molecular target: human D1 dopamine receptor (clone HGL26) (Homo sapiens, UniProt P21728); experiment: Competition for [^125 I]SCH23982 binding to membranes of COS-7 cells expressing HGL26; design: a 2.3 kb EcoRI-XbaI restriction fragment containing the open reading frame was subcloned into the expression vector pCMV5; expressed in transfected cells; host or cells: African green monkey kidney COS-7 cells, transient, pCMV5; conditions: ~0.3 nM [^125 I]SCH23982, 1 hr, room temperature; means of 2-5 independent determinations; one-site model; read-out: Kd (apparent equilibrium dissociation constant) for [^125 I]SCH23982 binding sites
Reported Metric: pKd
By convention, pKd is the negative base-10 log of a molar concentration.

Query: Would you kindly share the measured pKd for OCCC1CCN(CC/C=C2/c3ccc(F)cc3Sc3ccc(C(F)(F)F)cc32)CC1 [cis-piflutixol] ?
Reply: 9.70
